Just for reference, PubChem BioAssay AID2501 is where these values come from.

test-name: counter assay for TAg ATPase ADP read-out – biochemical, ADP-Hunter, fluorescence, counter-screen (AID 2501);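 further: purified T antigen ATPase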
conditions-used: series mostly up to 100 µM
The campaign covered roughly 2,200 compounds. About 1,200 (55%) were called active. So high a share suggests a set chosen from earlier hits. The list shows a part of the results.
value-type: IC50

These solved cases illustrate the format of a correct answer.
{"columns": ["molecule", "IC50"],
 "data": [
  ["CCN(CC)c1ccc(NC(=O)c2cccnc2)c(C)c1", "6.37 µM (active)"],
  ["CCCn1c(SCC(=O)N2CCCC(C)C2)nnc1-c1ccccn1 (configuration not stated)", "inactive"],
  ["O=C(N/N=C/c1ccc(O)cc1)c1csc2ccccc12", "4.27 µM (active)"],
  ["COc1cc(/C=N/NC(=O)CCn2nnc3ccccc32)ccc1O", "3.56 µM (active)"],
  ["O=C(NC(=S)Nc1ccc(O)cc1)c1cncc(Br)c1", "3.94 µM (active)"],
  ["COC/C=C/C1=CC2=CC(=O)C(C)(OC(=O)c3cnc4ccccc4n3)C(=O)C2=CO1 (configuration not stated)", "inactive"],
  ["CN(C)C=NC1=NN(c2cccc(C(F)(F)F)c2)CC1", "5.93 µM (active)"],
  ["CC(C)(C)c1cc(C(=O)N/N=C/c2ccc(O)cc2)n(-c2ccccc2)n1", "61.4 µM (active)"],
  ["COc1cc(/C=N/NC(=O)CCn2nc(C)cc2C)ccc1O", "6.73 µM (active)"],
  ["O=S(=O)(Nc1ccc(O)cc1)c1cccc2cccnc12", "4.75 µM (active)"]
]}

Please supply IC50 for each of the following items, keeping them in order.
1. Cc1cc(C)c(S(=O)(=O)Nc2cc(SCC(=O)O)c(O)c3ccccc23)cc1C
2. COc1ccc(NC2CCCN(C(=O)CCn3cccn3)C2)cc1 (configuration not stated)
3. Cc1ccc(-c2cc(C(=O)NCc3ccco3)c3ccccc3n2)o1
4. CC(=O)NS(=O)(=O)c1ccc(N=c2ssc3c2-c2cc(C)ccc2NC3(C)C)cc1
5. COc1ccc(OC)c(CCNC(=O)Cn2sc3nc(C)cc(C)c3c2=O)c1
6. COc1cc(/C=N/NC(=O)Cn2nnc3ccccc32)ccc1O
7. Cc1cccc(NC(=O)c2cc(Cl)nc3ccccc23)c1
8. COc1cccc(NC(=S)Nc2ccc(O)cc2)c1

# output
["inactive", "5.33 µM (active)", "inactive", "74.3 µM (active)", "inactive", "2.86 µM (active)", "inactive", "1.13 µM (active)"]
